- ASSAY: RPMI8226 myeloma cell viability, profiling panel, resazurin fluorescence, basal, 24 h, PK04 Diversity Set (AID 1180);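 note: RPMI8826 multiple myeloma cell line at 5000 cells per well; test concentration not given here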
- TEST_PARAMETERS: higher = more signal
Rule: z-score of -0.3 or more gives Met; anything lower gives Not met.

INSERT INTO measurements (compound, category_label) VALUES
  ('COc1cc2c(cc1O)C(C1CC1)N(Cc1sc3ccccc3c1Cl)CC2 (centres undefined)', 'Not met'),
  ('O=C1c2ccccc2[C@](Cc2ccccc2I)(C(=O)NCC(F)(F)F)[C@H](c2ccc(CO)cc2)N1Cc1ccccc1Cl', 'Met'),
  ('CC1(C)[C@@H]2CC(C(O)C3C=CC4C(=O)N(Cc5ccccc5)C(=O)C4N3n3cnnc3)=C[C@H]1C2 (some centres undefined)', 'Met');

Please indicate if the recorded z-score for CCOC(=O)C1=C[C@@H](C(C)(C)C)N(S(=O)(=O)c2ccc(C)cc2)[C@H]1c1ccc(F)cc1 meets or exceeds -0.3. Not met

Please indicate if the recorded z-score for CC(C)NC(=O)[C@@]1(c2ccc([N+](=O)[O-])cc2)CC(=O)N(C2CCCCC2)[C@@H]1c1ccc(CO)cc1I meets or exceeds -0.3. Met

Please indicate if the recorded z-score for O=C1C[C@@](C(=O)NC2CC2)(c2ccc([N+](=O)[O-])cc2)[C@@H](c2ccc(CO)cc2I)N1C1CCCCC1 meets or exceeds -0.3. Not met

Please indicate if the recorded z-score for COC(=O)[C@@]1(Cc2ccccc2)[C@H]2c3cc(C(=O)N4CCCC4)n(Cc4ccc(S(C)(=O)=O)cc4)c3C[C@H]2CN1C(=O)c1ccccc1 meets or exceeds -0.3. Not met
